Reference for the values: the supplement of paper PMC8253809

# Tested on: HGGX39 (paediatric high-grade glioma line)
# assayText: area under dose-response curve of % growth inhibition (log2 RLU vs DMSO / staurosporine), 1e-11 to 1e-4 M (% x log10 M); higher = more growth inhibition
quantityKind: area under dose-response curve

compound	value
CC(C)c1cc(C(=O)N2Cc3ccc(CN4CCN(C)CC4)cc3C2)c(O)cc1O	218
c1ccc2c(-c3cnn4cc(-c5ccc(N6CCNCC6)cc5)cnc34)ccnc2c1	147
COC(=O)Nc1nc2cc(C(=O)c3ccccc3)ccc2[nH]1	73.2
COc1cc2nc(N3CCCC3)nc(NCCCCCN3CCCC3)c2cc1OC	69.3
Nc1ccc2ncnc(NCCc3ccc(Oc4ccccc4)cc3)c2c1	216
C[C@@H]1C[C@H]2[C@@H]3CCC4=CC(=O)C=C[C@]4(C)[C@@]3(Cl)[C@@H](O)C[C@]2(C)[C@@]1(OC(=O)c1ccco1)C(=O)CCl [MOMETASONE FUROATE]	20.8
Clc1cc2c(NC3CCCC3)nnc(-c3ccncc3)c2cc1Cl	2.32
Cc1noc2c1-c1ccccc1C(c1ccc(Cl)cc1)=N[C@H]2CC(N)=O	110

Prompt line: Given `COc1cc(OC)c2c(=O)[nH]c(-c3cc(C)c(OCCO)c(C)c3)nc2c1` , state its recorded area under dose-response curve.
Response line: 8.2

Prompt line: Consider the compound `Cc1ccc(NC(=O)c2ccc(CN3CCN(C)CC3)cc2)cc1Nc1nc(-c2cccnc2)cs1` and give its measured area under dose-response curve.
Response line: 66.4

Prompt line: # lookup: area under dose-response curve of `CCC(C)(C)C(=O)O[C@H]1C[C@@H](C)C=C2C=C[C@H](C)[C@H](CC[C@@H]3C[C@@H](O)CC(=O)O3)[C@H]21`
Response line: 63.6
